# Experimental system: T. gondii ME49Luc in IFN-y HeLa, luciferase, 72 h
# Assay explanation: T. gondii growth inhibition with IFN-gamma, dose response, cell-based, ME49Luc, HeLa, luciferase, 72 h (AID 1259418)
Records with an inconclusive call do not appear. Activity calls are given as the source filed them.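 How the source made its calls: active means fitted half-maximal concentration of signal decrease at or below twice the sample's top tested concentration; inconclusive means flat curve between -70 and -30 percent, or poor fit; inactive means flat within 30 percent, signal rise, or potency above limit.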
The reply should name one outcome from active, inactive

Please review the entries below; each comes with its answer.
N#CCSC1=Nc2ccccc2C2=NC(CC(=O)NCc3cccs3)C(=O)N12 (stereo not drawn)    active
Cc1cc(C)c(S(=O)(=O)N2CCC3(CC2)NCCN=C3NCc2ccccc2C)cc1C    active
CN(C)C(=O)c1ccc(-c2ccc3c(c2)[C@@H]2[C@@H](CCN2C(=O)C2CCCC2)[C@H](CO)N3C)cc1    active
CCc1c(C)sc2c1CCN(Cc1nc(-c3cccc(OC)c3OC)oc1C)C2c1ccccc1 (stereo not drawn)    active
CCc1ccc(S(=O)(=O)N2CCC3(CC2)NCCN=C3NCc2ccc(F)c(Cl)c2)cc1    active

Per the assay record, what outcome was assigned to "O=C(C[C@H]1CC[C@@H]2[C@H](COC[C@@H](O)CN2Cc2ccc(Oc3ccccc3)cc2)O1)N1CCN(c2ccccc2)CC1" ?
active

Okay, and "COc1ccc(-c2nc(CN(c3ccccc3OC)S(=O)(=O)c3ccccc3)c(C)o2)cc1" ?
active

Okay, and "O=C(NCCc1csc(-c2ccccc2)n1)[C@H]1CCCN1C(=O)CCc1ccccc1" ?
inactive

Okay, and "OC[C@H]1Nc2ccc(-c3cccc(F)c3)cc2[C@@H]2[C@H]1CCN2Cc1ccc(F)cc1" ?
active

Okay, and "Cc1ccccc1N(Cc1nc(-c2ccccc2)oc1C)S(=O)(=O)c1cccs1" ?
inactive

Okay, and "CN(C)C(=O)c1ccc(-c2ccc3c(c2)[C@@H]2[C@@H](CCN2C(=O)C2CCCC2)[C@@H](CO)N3C)cc1" ?
active
